// provenance: PubChem BioAssay (NCI)

test system: HOP-62 NSCLC; assay: NCI tumour cell line growth inhibition, 48 h

compound	TGI
CCOC(=O)C1=C(N)Oc2ccc(Br)cc2C1C(C#N)C(=O)OCC (stereo not drawn)	> 100 µM
NC12Oc3cc(O)cc(O)c3C1(c1ccc(Cl)cc1)c1c(O)cc(O)cc1O2 (stereo not drawn)	> 100 µM
COc1ccc(N2C(=O)CS(=O)(=O)C2c2cccc(Oc3ccccc3)c2)cc1 (stereo not drawn)	> 100 µM

###

system: CAKI-1 renal; experiment: NCI tumour cell line growth inhibition, 48 h

compound	TGI
CC(C)(C)NC(=O)N1N=C(c2ccccc2)C1c1ccccc1 (centres undefined)	59.1 µM
Cn1c(N)c2c3c(sc2nc1=O)CCCC3	> 75 µM
Nc1nc(N)c(N=Nc2ccc([As](=O)(O)O)cc2)c(=O)[nH]1	> 100 µM
CS(=O)(=O)CCCn1c(=O)c(Oc2ccc(F)cc2F)cc2cnc(NC3CCOCC3)nc21	> 25 µM

###

tested on: UACC-62 melanoma; experiment: NCI tumour cell line growth inhibition, 48 h

compound	target-system	display-unit	op	TGI
CN1C(=O)C(CC=O)(C(C)(C)C)c2ccccc21 (centres undefined)	UACC-62 melanoma	µM	>	100
CN(CCN(C)C(=S)NN)C(=S)NN	UACC-62 melanoma	µM	>	100
CC(/C=N\NC(=S)N1CCCCC1)=N/NC(=S)N1CCCCC1	UACC-62 melanoma	µM	=	5.94
O=C(CC(O)(C(F)(F)F)C(F)(F)F)c1cc(CC(=O)C(O)(C(F)(F)F)C(F)(F)F)cc(CC(=O)C(O)(C(F)(F)F)C(F)(F)F)c1	UACC-62 melanoma	µM	=	4.11

###

test system: NCI-H460 lung; assay: NCI tumour cell line growth inhibition, 48 h
Reported TGI values for the following compounds.

compound	TGI
CC(=O)n1c2c(c(=O)n1-c1ccccc1)S(=O)CCC2 (stereo not drawn)	> 100 µM
O=c1[nH]c(=O)n(C2CC(O)C(CO)O2)cc1CO (stereo not drawn)	> 100 µM
CC(=O)O[C@H]1CCC2[C@@H]3CCC4=C(O)c5nocc5C[C@]4(C)C3CC[C@@]21C (stereo partly drawn)	> 100 µM

###

Reported TGI values for the following compounds.
test system: LOX IMVI melanoma; assay: NCI tumour cell line growth inhibition, 48 h
property-name: TGI (µM)

compound	property-name	display-unit	op	experimental-result
Cn1cnc([N+](=O)[O-])c1S(=O)(=O)Oc1ccccc1	TGI	µM	=	9.9
Cc1cc(C)nc(NS(=O)(=O)c2ccc(NNC(=O)c3cccc4c(=O)c5ccccc5[nH]c34)cc2)n1	TGI	µM	>	100
CC(/C=N\NC(=S)N1CCCCC1)=N/NC(=S)N1CCCCC1	TGI	µM	>	100
CCOC(=O)C1=C(N)Oc2ccc(Br)cc2C1C(C#N)C(=O)OCC (stereo not given)	TGI	µM	=	33.1
Cc1ccc(Cl)cc1Nc1nc(C(F)(F)F)ccc1C(=O)N1CCN(c2cccc(Cl)c2)CC1	TGI	µM	>	100
O=C(NCCCCN=c1cccccc1NCCCCNC(=O)OCc1ccccc1)OCc1ccccc1	TGI	µM	=	30
O=C(CCc1cc(O)cc(O)c1)NCCc1cc(O)cc(O)c1	TGI	µM	>	100
CC(=O)OC12c3ccccc3-c3ccccc3C1C1C(=O)N(C)C(=O)C12Cl (stereo not given)	TGI	µM	>	10
COc1ccc(CN(Cc2ccc(OC)cc2)C(=O)CC2(O)C=CCC2)cc1 (stereo not given)	TGI	µM	>	100
C#CCN(CC#C)C(=O)C(=O)c1c[nH]c2ccc(OC)cc12	TGI	µM	=	33.6
O=C(O)CCN(CCC(=O)O)c1ccc(/C=C2\SC(=S)NC2=O)cc1	TGI	µM	>	100
O=[N+]([O-])c1ccc(-n2nnc(C3=NCCN3)c2-c2ccc(Cl)cc2)cc1	TGI	µM	>	100
COC1C(O)=C2C(=O)O/C(C)=C/C=C/C=C/C=C\CC(c3ccccc3)NC(=O)\C=C/C=C\C=C\C=C\[C@@]2(C)[C@@H]1O (stereo not given in full)	TGI	µM	=	1.09
CCOC(=O)NC(=O)c1cn(CCOC(=O)NCCCCCCNC(=O)OCCn2cc(C(=O)NC(=O)OCC)c(=O)[nH]c2=O)c(=O)[nH]c1=O	TGI	µM	>	100
CC(=O)OC1(C#N)CC2OC1C1C2N=NN1C(=O)OC(C)(C)C (stereo not given)	TGI	µM	=	69.4
COc1cc(-c2nn(-c3cccc(NC(=O)Nc4ccc(Cl)c(Cl)c4)c3)cc2-c2ccncc2)ccc1Cl	TGI	µM	=	2.62
CC12CC(C#N)(C#N)C(C#N)(CO1)C(=N)O2 (stereo not given)	TGI	µM	>	100
O=c1n(-c2ccccc2)c(=O)n2n1C1C=CC2C2C(C1)C2(Cl)Cl (stereo not given)	TGI	µM	>	100
COc1cccc(/C=N/[N-]C(=O)c2ccncc2)c1[O-].[Cu+2].[OH3+]	TGI	µM	>	100
O=C(Nc1cc(Cl)ccc1Cl)c1cc2cccc(Cl)c2oc1=O	TGI	µM	>	100
Cc1c(Cl)cccc1N1C(=O)C(Cl)=C(Cl)C1=O	TGI	µM	>	100
Cc1c(CNc2ccc(C(=O)NC(CC(=O)O)C(=O)O)cc2)ccc2nc(N)nc(N)c12 (stereo not given)	TGI	µM	>	1000
O=C(/C=C/C=C/c1ccccc1)c1ccc2c(c1)CCCC2	TGI	µM	>	100
CCOc1ccc2nc(S/C(=C/C=C(C#N)C#N)c3ccc(C)cc3)sc2c1	TGI	µM	=	23.9
CC1C[C@]2(C)C(=O)Nc3ccccc3[C@@H]2Nc2ccccc21 (stereo not given in full)	TGI	µM	=	30.8
CC1(C)OC(=C(C#N)C#N)C(C#N)=C1/C=C/c1ccncc1	TGI	µM	=	3.51
CC(C)C[C@H]1[C@@H](OCc2ccccc2)COS(=O)N1[C@H](C)c1ccccc1 (stereo not given in full)	TGI	µM	=	28.2
CC[C@]1(Cc2ccc(OC)c(OC)c2)[C@@H]2C[C@@H](C3OCCO3)ON2O[C@H](OC2CCCC2(c2ccccc2)c2ccccc2)[C@@H]1OC(C)=O (stereo not given in full)	TGI	µM	=	53.9
COC(=O)c1c(O)ccc2c1c1c(n2Cc2ccc(Cl)cc2Cl)C(=O)c2ccccc2C1	TGI	µM	=	61.9
O=C1C[C@H]2[C@@H](O1)[C@@H](O)CN1C(=O)c3ccccc3[C@H]21	TGI	µM	>	100
